Test: gradient 5% acetonitrile 3 min, to 50% in 2 min, to 85% in 15 min, held 3 min, 100 µL/min
Conditions: column: Zorbax Extend-C18 2.1 x 50 mm; eluents: water / acetonitrile, 0.1% formic acid
Measurement Label: RP-LC retention time (s)

Worked cases, answers included:
{"Molecule": "Cc1ccc(-n2c(=O)c3sccc3n(Cc3nc(-c4ccc(C)c(C)c4)no3)c2=O)cc1", "Unit Label": "s", "Measured Value": 1150}
{"Molecule": "CCCS(=O)(=O)c1nc2ccc(NS(=O)(=O)c3ccc(F)cc3F)cc2s1", "Unit Label": "s", "Measured Value": 934}
{"Molecule": "CN1CCN(C(=O)c2cc3c(s2)CCN(C(=O)c2ccc(Cl)cc2)C3)CC1", "Unit Label": "s", "Measured Value": 627}
{"Molecule": "Cc1cc(Cl)ccc1S(=O)(=O)N1CCC(OCc2noc(C3CCCO3)n2)CC1 (stereo not given)", "Unit Label": "s", "Measured Value": 1030}
{"Molecule": "CCOc1ccc(-c2noc(Cn3cnc4c(oc5ccccc54)c3=O)n2)cc1OC", "Unit Label": "s", "Measured Value": 916}

(P) O=C(c1ccc2ncnc(N3CCCC3)c2c1)N1CCCC1
(Q) CCN1C(=O)COc2ccc(-c3noc(-c4ccc(Cl)cc4)n3)cc21
(R) COc1ccc(F)cc1S(=O)(=O)N1CC(c2nc(-c3ccsc3)nn2C)C1
Ask: Rank descending by RP-LC retention time. // rank by listing labels in the order requested
Reply: Q, R, P
(Q: 1220 s, R: 841 s, P: 580 s)

(I) Cc1nc(C)c(C(=O)N2CCC(Oc3nc4c(C)ccc(C)c4s3)CC2)s1
(II) CCOC(=O)c1ccc(NC(=O)CCc2c(-c3ccc(F)cc3)nc3ccccn23)cc1
Ask: Min RP-LC retention time? I | II Provide the label of your selected option as the answer.
Reply: II
(II: 700 s, I: 1090 s)

(A) C=CCN1C(=O)COc2ccc(-c3csc(NC(=O)CCC4CCCCC4)n3)cc21
(B) Cc1ccc(-n2nc(N3CCN(C(=O)Nc4ccc(F)cc4F)CC3)ccc2=O)cc1
(C) O=C(CCNc1cnc2cnccn12)Nc1ccc(N2CCOCC2)cc1
Ask: # ascending order, key=RP-LC retention time // rank by listing labels in the order requested
Reply: C, B, A
(C: 534 s, B: 781 s, A: 1210 s)

(P) CCCNC(=O)CSc1cn(CC(=O)N2CC(C)OC(C)C2)c2ccccc12 (stereo not given)
(Q) Cc1cccc(-c2noc(CSc3nc4cc5c(cc4c(=O)n3Cc3ccccc3)OCO5)n2)c1
Ask: Min RP-LC retention time? P | Q Provide the label of your selected option as the answer.
Reply: P

Sourced from the METLIN SMRT retention time set (Domingo-Almenara et al. 2019)
